# system tested: RadA-EL2 (extracellular loop 2 of connexin43 grafted into the monomeric ATPase domain of Pyrococcus furiosus … (Pyrococcus furiosus | , Only the grafted connexin43 EL2 loop (the binding part) is given. It was displayed on the His-tagged monomeric RadA ATPase domain of Pyrococcus furiosus, treated here as a carrier. The scaffold limits))
# Sequence (chain, as listed by the source): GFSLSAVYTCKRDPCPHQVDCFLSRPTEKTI
# protocol description: SPR; Biacore T200; his-tagged RadA-EL2 captured on NTA surface (about 200 RU) as ligand, Gap26 injected as analyte at 30 µL/min; 30 °C; 50 mM HEPES pH 7.5, 500 mM NaCl, 0.005% Tween-20, 0.1 mM TCEP; reference channel without nickel; 1:1 binding model
# protocol conditions: both partners purified

binder	Kd
VCYDKSFPISHVR (connexin43 mimetic peptide, 13 amino acids, analogue of the first extracellular loop (EL1) of connexin43; The peptide was tested on the RadA-EL2 construct; also called G26; connexin mimetic peptide Gap26; source: bought: Pepnome Inc., Hong Kong (peptide)) [Gap26]	8 µM
